# MEASUREMENT TARGET: nLuc-AFF (6*-50* duplication, 6-aa linker AAGASS) (UniProt P03069 226-281)
# Sequence (P03069 226-281): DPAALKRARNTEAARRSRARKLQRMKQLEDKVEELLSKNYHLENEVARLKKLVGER
# PROCEDURE DETAILS: luminescence ratio L460/L520 titration
pKd: −log10 of the molar value.

BINDER: AP-1 duplex (dsDNA) DNA 1: AGTGGAGATGACTCATCTCGTGC DNA 2: GCACGAGATGAGTCATCTCCACT
pKd: 7.84
